Reference for the values: the METLIN SMRT retention time set (Domingo-Almenara et al. 2019)

Test Details: gradient 5% acetonitrile 3 min, to 50% in 2 min, to 85% in 15 min, held 3 min, 100 µL/min
Condition Notes: column: Zorbax Extend-C18 2.1 x 50 mm; eluents: water / acetonitrile, 0.1% formic acid
Assay Metric: RP-LC retention time (s)

- O=C(Cn1nc2nc(N3CCCC3)ccn2c1=O)N1CCN(c2ccccc2F)CC1: 691
- Cc1nc(-c2cc(S(=O)(=O)Nc3ccc(F)cc3F)c(C)s2)sc1C: 1090
- COCCN1C(=O)c2cc3ccsc3n2CC1(C)C(=O)NCc1ccc(Cl)cc1 (stereo not given): 837
- O=C(Cn1cccc1-c1nc(-c2ccc3c(c2)OCO3)no1)N1CCc2ccccc21: 1090
- COc1ccc(CN2CC3(CCN(S(=O)(=O)c4cccnc4)CC3)C2=O)cc1: 750
- O=C(C1=Cc2ccccc2OC=C1)N1CCc2ccccc2C1: 1090
- O=S(=O)(Cc1ccc(-c2nc(-c3ccccc3)no2)o1)c1ccccc1: 1010
- O=C(Cn1cccc(-c2nc(-c3ccccc3)no2)c1=O)Nc1ccc(Br)cc1F: 951
- COc1ccc(NC(=O)c2nc(C3CCC3)oc2C)cc1C(F)(F)F: 1170
- CCOc1cccc(-c2noc(Cn3c(=O)n(-c4ccccc4F)c(=O)c4sccc43)n2)c1: 1050
- Cc1ccc2nc(C(=O)NCc3ccc(C)o3)cn2c1: 660
- Cc1ccc(-n2cc3c(N4CCCC(C(=O)NCc5ccc(C(F)(F)F)cc5)C4)ncnc3n2)cc1 (stereo not given): 786
- CNc1nc(N2CCNC(=O)C2)nc2ccccc12: 564
- Cn1nc(C(=O)Nc2ccc(CC(=O)NCC(F)(F)F)cc2)ccc1=O: 622
- CNC(=O)c1c2c(nc3ccc(F)cc13)CCCC2: 571
- O=C(CSc1ccc(N2CCOCC2)nn1)Nc1ccc(F)cc1F: 669
- CC(C)NC(=O)c1ccc(OCC2CCN(C(=O)C(C)C)CC2)cc1: 756
- O=C1CC(c2noc(-c3cccc(F)c3)n2)CN1c1ccccc1 (stereo not given): 958
- COc1ccc(-c2nc(C3CC(=O)N(c4ccc(Cl)cc4)C3)no2)c(C)c1 (stereo not given): 1140
- COCCCNC(=O)Cn1ncc2c(C)n(Cc3ccc(Cl)cc3)c(C)c2c1=O: 775
- Cc1ccc(N2CN(CC#N)S(=O)(=O)c3cccnc32)cc1: 877
- Cc1oc(C2CCN(C(=O)Nc3cccc(Cl)c3C)CC2)nc1C(=O)N1CCCC1: 813
- CCC(=O)Oc1ccc(N2C(=O)CCC2=O)cc1: 671
- COc1ccc(-n2ccn3cc(-c4ccc(F)cc4)nc3c2=O)cc1: 790
- Cc1cc(C)nc(SCC(=O)Nc2cccc3ccccc23)n1: 779
- COc1cc(NC(=O)c2c(OC)cc(=O)n3c2CCCC3)cc(OC)c1OC: 779
- CC(C)(C)C(=O)Nc1nc(CC(=O)NCCC2=CCCCC2)cs1: 814
- Fc1cccc(-c2noc(-c3ccc(NCCCN4CCC(N5CCCCC5)CC4)nc3)n2)c1: 614
- COc1ccc(-c2nc(C3CC(=O)N(c4ccc(F)cc4)C3)no2)cc1 (stereo not given): 961
- Cc1ccccc1NC(=O)N1CCC(c2cc(N)on2)CC1: 644
- CCNc1cc(N2CCCC(CCC(=O)NC(C)C)C2)ncn1 (stereo not given): 601
- COc1ccc(CNC(=O)c2c(C)sc3ccn(CC(C)C)c(=O)c23)cc1OC: 865
- Cc1ccc(S(=O)(=O)Nc2cc(-c3cn4cccc(C)c4n3)ccc2C)cc1C: 729
- COc1ccc(C2(C(=O)N3CCC(Cc4ccc(COc5ccncc5)cc4)CC3)CC2)cc1: 750
- O=C(c1[nH]nc2c1CCc1ccccc1-2)N1CCC(c2noc(-c3ccncc3)n2)C1 (stereo not given): 755
